Recorded TGI for the following compounds
System: CCRF-CEM leukemia
Test: NCI tumour cell line growth inhibition, 48 h
measured attribute: TGI

> print(dat)
                                    compound  measured
 1  Cc1ccc(/C=N/n2c(-c3ccc(C)cc3)n[nH]c2=O)cc1  > 100 µM
 2  COc1ccc(C2OC(=O)c3ccc4ccccc4c32)c(C)c1 (stereo unspecified)  > 100 µM
 3       c1ccc2c(c1)c1c(n2CCOCCN2CCCC2)CCCC1     51 µM
 4  CCNc1cc(-c2cccc(OC(F)(F)F)c2)nc2ccc(N3CCCC3)cc12   8.69 µM
 5  O=C(/C=C/C12c3ccccc3C(c3ccccc31)C1C(=O)NC(=O)C12)c1ccc(Cl)cc1Cl (stereo unspecified)   7.23 µM
 6  COc1ccc(S(=O)(=O)N2CCN(C(=O)c3ccc(-c4ccccc4)cc3)CC2C(=O)NO)cc1 (stereo unspecified)  > 100 µM
 7  COC(=O)C1Cc2cc3c(cc2C1=O)CCCC3 (stereo unspecified)  > 100 µM
 8             Cc1[nH]nc(C(F)(F)F)c1N=NN(C)C     16 µM
 9   CSc1ccc(-c2cc(-c3nc4ccccc4[nH]3)no2)cc1  > 100 µM
10   Cc1nc(-c2ccccc2)n2nc(NCCCN3CCOCC3)ncc12   > 25 µM
11  CCC1CC2C(=O)N(c3ccccc3)C(=O)C2c2[nH]c3ccccc3c21 (stereo unspecified)  > 100 µM

* * *

Test system: SNB-75 CNS
Assay: NCI tumour cell line growth inhibition, 48 h
Recorded TGI for the following compounds
measured attribute: TGI (µM)

> print(dat)
                                   compound  test.system  measured.attribute  op  measured
1  COc1ccc(C2OC(=O)c3ccc4ccccc4c32)c(C)c1 (stereo not given)   SNB-75 CNS                 TGI   =      44.7
2  O=C(/C=C/c1ccc(-c2ccccc2)cc1)NCc1ccc(C(=O)NCc2ccccc2)cc1   SNB-75 CNS                 TGI   >       100
3  O=S(=O)(Nc1nc2ccccc2nc1Nc1ccc2ccccc2c1)c1ccccc1   SNB-75 CNS                 TGI   >      73.6
4  CC1CCC2(NC1)OC1CC3C4CC=C5CC(O)CCC5(C)C4CCC3(C)C1C2C (stereo not given)   SNB-75 CNS                 TGI   =      15.3
5  O=[N+]([O-])c1ccc2c(c1)N([O-])C1(CCCCC1)[N+]2=O   SNB-75 CNS                 TGI   =      33.2

* * *

System: HCC-2998 colon
Experiment: NCI tumour cell line growth inhibition, 48 h; in the data active = GI50 below about 0.43 µM; inactive = the rest
Outcome codes: active, inactive

> print(dat)
                                    compound     test.system  label.value
 1  COc1ccc(-c2cs/c(=N\N=C\c3ccc(O)cc3O)n2/N=C/c2ccc(O)cc2O)cc1  HCC-2998 colon     inactive
 2  CC(=O)c1ccc2c(c1)C1C=CCC1[C@H](c1cc3c(cc1Br)OCO3)N2 (stereo partly specified)  HCC-2998 colon     inactive
 3  Nc1ccccc1C#C/C=C\C#Cc1ccc(OCCCNC(=O)c2cc3ccccc3[nH]2)cc1  HCC-2998 colon     inactive
 4   O=C(O)c1ccc(NCn2nc(-c3ccccc3O)oc2=S)cc1  HCC-2998 colon     inactive
 5        Cc1nn[n-]n1.N.N.N.N.N.[Cl-].[Co+3]  HCC-2998 colon     inactive
 6  O=c1c2cc(F)ccc2sc2c(N3CCNCC3)nc3ccc(F)cc3c12  HCC-2998 colon     inactive
 7  C[C@@H]1C[C@H](C)CN(S(=O)(=O)c2ccc3c(NO)c4ccc(S(=O)(=O)N5C[C@H](C)C[C@H](C)C5)cc4c(N=O)c3c2)C1  HCC-2998 colon       active
 8   CC(C)c1c(-c2ccccc2)nc2c(C#N)c[nH]n2c1=O  HCC-2998 colon     inactive
 9                            S=c1snc2n1CCN2  HCC-2998 colon     inactive
10               COc1ccc(-c2ccncc2)cc1C(N)=O  HCC-2998 colon     inactive
11          CCC[CH2][Sn]([Cl])([Cl])[CH2]CCC  HCC-2998 colon     inactive

* * *

Recorded TGI for the following compounds
Tested on: HCC-2998 colon
Experiment: NCI tumour cell line growth inhibition, 48 h

compound	op	TGI (µM)
O=S(=O)(Nc1nc2ccccc2nc1Nc1ccc2ccccc2c1)c1ccccc1	=	29
CCC[CH2][Sn]([Cl])([Cl])[CH2]CCC	=	2.32
COc1ccc(N=NC(C(=O)c2ccccc2)C(=O)c2ccccc2)cc1	=	91.1
Cn1c(-c2c(N)n(Nc3cccc(Cl)c3)c3nc(C#N)c(C#N)nc23)nc2ccccc21	=	16.9
CC(=N\N)/C(C)=N/N=C(C)/C(C)=N/N	>	100
Nc1nc(Cl)c(N)c(NCC2(CO)CC2)n1	>	100
[N-]=[N+]=NC(c1cn(C2CC(O)C(CO)O2)c(=O)[nH]c1=O)C(Br)Br (configuration not stated)	>	100
O=C(Nc1cc(C(F)(F)F)ccc1Cl)c1ccc(NC2=C(Cl)C(=O)N(Cc3ccccc3)C2=O)cc1	=	9.11
COc1cc(F)c(F)c(Nc2ccc(I)cc2F)c1NS(=O)(=O)C1(C[C@H](O)CO)CC1	>	4.24
CCC1(N=[N+]=[N-])C(=O)c2ccccc2N(C)C1=O (configuration not stated)	>	100
COc1cc2ncn(-c3cc(OCc4ccccc4C(F)(F)F)c(C(=O)N(C)C)s3)c2cc1OC	>	25
Brc1ccc(C[P+]2(c3ccccc3)CCCCC2)cc1	>	100
CC(=O)Oc1ccc(C23c4ccccc4C2(OC(C)=O)c2cc(OC(C)=O)ccc23)cc1 (configuration not stated)	=	8.46
CC[C@@]1(O)C(=O)OCc2c1cc1n(c2=O)Cc2c-1nc1ccccc1c2/C=N\NC(=O)C1CCCN1 (some centres not stated)	>	53.7
Cc1ccc(S(=O)(=O)OC2C(O)C(O)OC2C(c2cc(O)c3c(c2O)C(=O)c2ccccc2C3=O)c2cc(O)c3c(c2O)C(=O)c2ccccc2C3=O)cc1 (configuration not stated)	>	10
O=C1c2cc(Cl)ccc2NC(=NC2CCCC2)C2CSCN12 (configuration not stated)	>	100
Cc1nc(-c2ccccc2)n2nc(NCCCN3CCOCC3)ncc12	>	25
Cc1cc2/c(=C\c3ccc(N(C)C)cc3)c3ccccc3n2[n+]1C	=	1
CC(C)(C)OC(=O)N(CCCCNC(=O)OCc1ccccc1)CCCNC(=O)OCc1ccccc1	>	100
C=C(C(=O)O)[C@@H]1C[C@@H]2O[C@H]1[C@@H](O)[C@@H](C)CCCC(C)=CCC[C@@]2(C)O	>	100
COC(=O)CCC1=C(CC(=O)OC)C(C)(OC)N=C1NC(=O)OCc1ccccc1 (configuration not stated)	>	100
N#CN/C(N)=N/C/N=C(\N)NC#N	>	100
O=C(O)CCS/C(=C\C(SCCC(=O)O)c1ccc(Cl)cc1)c1ccc(Cl)cc1 (configuration not stated)	=	54.7
N/N=C1\C(=O)N(C2CCCCCC2)C(=O)C1C(=O)NC1CCCCCC1 (configuration not stated)	=	43.9
CC1(C)OC2[C@@H](CO[C@@]3([C@@H](O)CCO)OC(C)(C)O[C@@H]23)O1 (some centres not stated)	>	100
Cc1nc(CC#N)n[nH]1	>	100
[O-][N+](=Nc1ccccc1CO)c1ccccc1CO	>	100
CCC1CC2C(=O)N(c3ccccc3)C(=O)C2c2[nH]c3ccccc3c21 (configuration not stated)	>	100
COc1ccc(C(c2c(O)c3ccccc3n(-c3ccccc3)c2=O)c2c(O)c3ccccc3n(-c3ccccc3)c2=O)cc1	>	100
O=c1cc(CO)oc2c3c(cc(O)c12)OCC(COC1OC(CO)C(O)C(O)C1O)=CC3 (configuration not stated)	>	100
C=CCn1c(C)nc2ccc(Nc3nc(Nc4ccc(F)cc4)nc4ccccc34)cc21	=	23.5
CC(Oc1ccc2c(-c3ccccc3)cc(=O)oc2c1)C(=O)O (configuration not stated)	>	100
CCP(=O)(CC)C(Cl)Cl	>	100
c1ccc(C(NCC2CCO2)(c2ccccc2)c2ccccc2)cc1 (configuration not stated)	=	30.6
CCN(CC)CCCNc1ccc2nc(C)n3c4ccc(O)cc4c(=O)c1c23	=	22.6
O=C(O)c1ccc(NCn2nc(-c3ccccc3O)oc2=S)cc1	=	93.7
CCOC(=O)c1[nH]c(-c2[nH]c(-c3[nH]c(-c4[nH]c(C(=O)OCC)c(C)c4C(=O)OCC)c(C(=O)OCC)c3C)c(C)c2C(=O)OCC)c(C(=O)OCC)c1C	>	100
O=C(O)c1ccc(CI)cc1	=	35.6
OC1(c2ccc(-c3ccccc3)cc2)c2ccccc2C2=NCCN21 (configuration not stated)	=	40.4
C=CCC1CC(n2cc(C)c(=O)[nH]c2=O)OC1CO[Si](C)(C)C(C)(C)C (configuration not stated)	=	35.5
CCOC(=O)c1nnsc1N/N=C\c1ccc([N+](=O)[O-])cc1	>	100
C=CCNc1nc2c(s1)C(=O)c1ccccc1C2=O	=	35.3
